# melting point per record follows

CS(=O)(=O)c1cccc(C(N)c2ccc(F)cc2)c1 (stereo not drawn) ... 88 to 90 °C

Exercise: Fill blank: measured melting point of the compound Cc1ccc2c(c1)NC(=O)C(C)O2 (stereo not drawn) is ____.
Solution: 146 to 148 °C

Exercise: And what about the compound `O=C(CCl)NCc1ccc(COc2ccccc2)cc1` ?
Solution: 123 to 125 °C

Exercise: And NC(CSCc1cccc2cccnc12)C(=O)O (stereo not drawn) ?
Solution: 171 to 173 °C

Exercise: Now the same for `CCc1cc(=O)[nH]c(-c2cccc(N)c2)n1`
Solution: 139 to 141 °C

Exercise: Please give the result for `CCOc1ccc(NC(=O)CCl)cc1` too.
Solution: 149 to 151 °C

Exercise: How about `Cc1ccc(C(=O)Nc2nc3ccc(N)cc3s2)s1` ?
Solution: 250 to 252 °C

Exercise: Also, `Nc1ccc(F)c(S(=O)(=O)NC2CC2)c1` please.
Solution: 107 to 109 °C

----------
Measured melting point accompanies every entry in the list below.

Take a look at these entries with their results.
CNC(=O)c1ccnc(F)c1 ... 127 to 129 °C
COC(=O)c1cc(CCl)c(C)s1 ... 54 to 56 °C
Cc1nc(N)n(-c2ccccc2)n1 ... 131 to 133 °C

Exercise: Please report the recorded melting point for `COC(=O)c1ncsc1SCc1ccccc1` .
Solution: 92 to 94 °C

Exercise: Same for `CC(C)(C)OC(=O)Nc1cccc(CCl)c1`
Solution: 103 to 105 °C

Exercise: Try the molecule `CCc1ccc2c(CC(=O)O)coc2c1`
Solution: 82 to 84 °C

----------
# melting point per entry

Some entries whose results are on file:
O=C(O)C(Oc1ccc(F)cc1Br)c1ccccc1 (stereo not drawn) ... 133 to 135 °C
Cc1cc(/C=C(\C#N)C(=O)O)c(C)n1-c1ccccc1F ... 165 to 167 °C
O=C(CCCCl)c1cc(F)ccc1O ... 66 to 68 °C
COCCCn1c(S)nc2ccccc2c1=O ... 180 to 182 °C

Exercise: Could you share which melting point value was measured for `O=C(O)Cc1c[nH]c2cc(F)ccc12` ?
Solution: 159 to 161 °C

Exercise: And `CCOc1ccc(C(=O)NCC(=O)O)cc1OCC` ?
Solution: 119 to 122 °C

Exercise: Ok, now `COc1cc(C#N)ccc1OC(C)C`
Solution: 71 to 73 °C

Exercise: How about this compound: CC1C(C(F)(F)F)OC(=O)N1c1ncccc1N (stereo not drawn)
Solution: 62 to 64 °C

Exercise: Queued: `O=C(O)c1cccc(NC(=O)c2cccnc2)c1`
Solution: 304 to 306 °C

Exercise: Please give the result for `NC(=O)COc1cccc(CO)c1` too.
Solution: 116 to 118 °C

Exercise: What would you report for `CC(C)Oc1ccc(N)cc1C#N` ?
Solution: 39 to 41 °C

Exercise: And the next one, `Cn1c(=O)oc2ccc(N)cc21` ?
Solution: 229 to 231 °C

Exercise: Proceed to O=C(O)C1CC1c1ccc(F)c(F)c1 (stereo not drawn)
Solution: 89 to 91 °C

----------
Result type: melting point

Exercise: Which melting point is listed for `COC(=O)C(=O)C=C(C)OC` ?
Solution: 37 to 39 °C

Exercise: Next entry: `CCOC(=O)c1cccnc1NC`
Solution: 46 to 48 °C

Exercise: Try this compound too: `CC(C)(C)c1ccccc1OCC(=O)O`
Solution: 144 to 148 °C

Exercise: Try `c1ccc2cc(CN3CCNCC3)ccc2c1` next.
Solution: 53 to 55 °C

Exercise: What about `Fc1ccc(NC2CCOCC2)nc1` ?
Solution: 115 to 117 °C
